test: chemical genetic growth profiling, strain panel (AID 1159580);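 further: tested at 20 µM; growth read once vehicle control cultures reached saturation at 30 °C; 1 = growth at the plate median or of vehicle wells; lower values mean less growth of the strain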; conditions: S. cerevisiae deletion strains, growth OD, locus YHR027C, strain rpn1, stronger effect = lower value
Hit rate of the full screen: of about 5,500 compounds, about 2,000 (36%) were called active. Inconclusive results (about 18%) are left out. This is one part of the list.
Reported endpoint: normalized growth

Cn1c(=O)c2c(ncn2CCO)n(C)c1=O : 1
O=c1c(O)cccc2cc(O)c(O)c(O)c12 : 0.554
COc1cc(O)c2c(c1)C(=O)c1cc(C)cc(O)c1C2=O : 0.999
O=c1c(O)c(-c2ccccc2)oc2ccccc12 : 0.268
COc1cc([C@@H]2c3cc4c(cc3[C@H](O)[C@H]3COC(=O)[C@H]23)OCO4)cc(OC)c1OC : 1.01
CCCCCC/C=C\CCCCCCCc1cccc(O)c1C(=O)O : 0.992
CNC(C)(C)Cc1ccccc1 : 1.02
O=c1c(O)c(-c2ccccc2)oc2cc(O)ccc12 : 0.339
O=C1C=C(O)c2ccccc2C1=O : 0.935
O=C1C=CC(=O)c2ccccc21 : 0.0646
CCCc1ncc(C[n+]2ccccc2C)c(N)n1 : 0.997
COC(=O)CC1C(C)(C(=O)c2ccoc2)CC2OCC34C(CC(=O)OC)C5(C)CC36OC3(C)OC1(C(OC(C)=O)C6(OC(C)=O)C5OC(=O)C(C)C)C24O3 (stereo not given) : 0.985
CC(=CC1CCC(C)C2CCC(C)=C12)C(=O)O (stereo not given) : 0.956
O=c1c(O)c(-c2ccccc2)oc2ccc3occc3c12 : 0.937
O=c1c(O)c(-c2ccccc2)oc2cccc(O)c12 : 0.751
CC(C)C1CCC(C(=O)N[C@@H](Cc2ccccc2)C(=O)O)CC1 (stereo not given in full) : 0.993
CCCCCCCCCCCCCCCC(=O)OC[C@H](NC(=O)C(Cl)Cl)[C@H](O)c1ccc([N+](=O)[O-])cc1 : 0.992
CC(C)[C@@H]1CC[C@@H](C)CC1=O : 1
Cn1cnc2c1c(=O)[nH]c(=O)n2C : 0.972
Oc1cccc2cccnc12 : 0.0611
CNC(=O)N(C)c1nnc(C(C)(C)C)s1 : 0.993
ClC1C(Cl)C(Cl)C(Cl)C(Cl)C1Cl (stereo not given) : 0.988
COc1cc(OC)c2c(OC)c(-c3ccc4c(c3)OCO4)c(=O)oc2c1 : 0.999
NC(Cc1ccc(Cl)cc1)C(=O)O (stereo not given) : 0.992
O=C(O)c1cccnc1C(=O)O : 1.02

---

Listing: normalized growth of selected molecules
assay: chemical genetic growth profiling, strain panel (AID 1159580);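 further: tested at 20 µM; growth read once vehicle control cultures reached saturation at 30 °C; 1 = growth at the plate median or of vehicle wells; lower values mean less growth of the strain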; details: S. cerevisiae deletion strains, growth OD, locus YKL193C, strain SDS22, stronger effect = lower value
Among all 5,500 compounds or so, about 2,000 (36%) were called active. Another 18% or so got no clear call; they are omitted. This is one part of the list.
Reported endpoint: normalized growth

COc1ccc(Oc2ccc([N+](=O)[O-])cc2C(=O)O/N=C(/N)c2ccc(C(F)(F)F)cc2)cc1 : 1
O=C(/C=C/c1ccc(Cl)cc1)Nc1cccc(Cl)c1 : 0.956
N#CC(C(=O)Nc1cccc(C(F)(F)F)c1)C(=S)Nc1ccccc1Cl (configuration not stated) : 0.998
CC1SC(c2cccnc2)N(c2ccc(Cl)cc2)C1=O (configuration not stated) : 0.947
CCOC(=O)C(NC(=O)c1cccc(Cl)c1)(Nc1nc2ccccc2s1)C(F)(F)F (configuration not stated) : 0.964
Cc1cc(N=Cc2cc(Cl)cc(Cl)c2O)no1 : 0.971
O=C(Nc1cc(Cl)cc(Cl)c1)c1cc(Cl)ccc1O : 0.93

Data origin: PubChem BioAssay AID1159580
